# Target entity: Cad1 (UniProt P24813)
# Sequence: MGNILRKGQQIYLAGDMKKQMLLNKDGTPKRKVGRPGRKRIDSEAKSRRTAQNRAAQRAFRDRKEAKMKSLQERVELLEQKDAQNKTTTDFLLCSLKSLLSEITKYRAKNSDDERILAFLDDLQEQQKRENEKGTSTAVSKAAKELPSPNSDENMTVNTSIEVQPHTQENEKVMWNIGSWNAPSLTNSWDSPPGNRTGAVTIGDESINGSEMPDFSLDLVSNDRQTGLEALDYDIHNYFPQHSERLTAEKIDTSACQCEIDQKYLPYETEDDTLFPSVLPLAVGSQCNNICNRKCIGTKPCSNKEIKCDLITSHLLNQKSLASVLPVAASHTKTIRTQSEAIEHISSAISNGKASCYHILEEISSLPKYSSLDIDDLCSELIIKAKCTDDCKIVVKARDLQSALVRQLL
# Assay text: PBM E-score (8-mer binding enrichment) (E-score (-0.5 to 0.5)); higher = stronger / more preferred TF binding
# Measurement parameters: protein concentration: 100 nM; construct: GST-full length
In all, about 33,000 sequences were measured (“E-score (-0.5 to 0.5)”: median about -0.0014, highest 2% from about 0.25 on). Only a selection was taken, and the highest values are over-represented in it overall.
Decision: PBM E-score compared against 0.02; not below it gives 1, below it gives -1.

{"columns": ["Seq string", "Label"],
 "data": [
  ["TCGATCGA", 1],
  ["AGCACTAC", -1],
  ["GAACAAAC", 1],
  ["CACTGCGC", -1],
  ["AATAAAAA", 1],
  ["AATAAATC", -1],
  ["ATTCGGGG", 1],
  ["CCTTATAG", -1],
  ["ACACAAAA", 1],
  ["CTAAAATA", 1],
  ["CAAGTGGA", -1],
  ["TAATCTCA", 1],
  ["CAGATCGC", -1],
  ["ACGCATGC", 1],
  ["TAACACTA", 1],
  ["ATAACGAA", 1],
  ["CACTTCGG", -1],
  ["ACGCATGG", -1],
  ["AAGACAAC", 1],
  ["CACAAGCG", -1],
  ["CCGGGTAG", -1],
  ["TCACAAAA", 1],
  ["ATCTTCAC", -1],
  ["CACAGGAC", -1],
  ["TCAACGAA", 1],
  ["AATAAATG", 1],
  ["GCAACGAA", 1],
  ["GGTGCATA", -1],
  ["ACGATCGA", 1],
  ["CTCTGAAC", -1],
  ["GGAGCGCC", -1],
  ["CTCATGAC", -1],
  ["GCGGCCGC", 1],
  ["AACTTGAT", 1],
  ["CGTGCCAC", -1],
  ["AAAGAACC", 1],
  ["GTCTACAC", 1],
  ["ATTTAACA", 1],
  ["CAGACAAC", -1],
  ["AACTTGAG", -1],
  ["CGAGGCGA", 1],
  ["GCGATCGA", 1],
  ["AGTTCAGA", -1],
  ["CAATATAA", 1],
  ["ATCAACCC", 1],
  ["ACAAACAC", 1],
  ["ACAACGAA", 1],
  ["CAACACTA", 1],
  ["AATAAATA", 1],
  ["ACCCAAGT", -1],
  ["GAACACTA", 1],
  ["AAGAGCCA", -1],
  ["CACGCACG", -1],
  ["CAATATAG", 1],
  ["GATTACAC", 1],
  ["AGGGTTGA", -1],
  ["ACCACACC", -1],
  ["AATCTGCG", -1],
  ["CACGGAAG", -1],
  ["ACGCATGA", -1],
  ["ATTTGATC", -1],
  ["CGGACACA", -1],
  ["CATTACAG", 1],
  ["ATGCCTTC", -1],
  ["GCTAAGCC", -1],
  ["CTCAATGC", -1],
  ["AATAAAAT", 1],
  ["TCATGTCA", 1],
  ["ATAAACAA", 1],
  ["CATAAGCC", 1],
  ["CGACAAAA", 1],
  ["CCGTTCCC", -1],
  ["AGAGCCAG", -1],
  ["AGACTTCG", -1],
  ["GAACTATA", 1],
  ["GCGCCCAA", 1],
  ["GAATATAA", 1],
  ["GAACAAAA", 1],
  ["AAAAAATA", 1],
  ["AGTCCTTG", -1],
  ["AAGCCGGC", 1],
  ["AAGACAAG", 1],
  ["AGGGATCG", -1],
  ["CATTACAA", 1],
  ["CAGCGGCA", -1],
  ["GCGTTAGC", 1],
  ["ATGTTTCC", -1],
  ["TATTACAA", 1],
  ["ATCGAACG", -1],
  ["TTAATCAA", 1]
]}

Just for reference, the supplement of paper PMC3334620 is where these values come from.
